FYI, the data here is from patent US8580965B2.

- Target of assay: B1R receptor of the rat (bradykinin 1 receptor) (Rattus norvegicus, UniProt P97583)
- Construct: host or cells: CHO K1 cells (rB1R cells)
- Sequence (P97583 whole entry): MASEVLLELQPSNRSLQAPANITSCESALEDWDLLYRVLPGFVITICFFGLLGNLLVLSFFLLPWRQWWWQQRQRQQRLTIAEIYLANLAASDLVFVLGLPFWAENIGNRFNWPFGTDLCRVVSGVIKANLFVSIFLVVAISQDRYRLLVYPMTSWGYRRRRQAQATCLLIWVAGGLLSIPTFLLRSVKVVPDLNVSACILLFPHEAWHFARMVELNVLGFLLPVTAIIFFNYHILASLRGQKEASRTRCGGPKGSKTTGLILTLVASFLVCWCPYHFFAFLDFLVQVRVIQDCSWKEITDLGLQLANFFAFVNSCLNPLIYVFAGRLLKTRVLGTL
- Experimental details: FLIPR Ca2+ assay (Fluo-4) on CHO K1 cells stably transfected with the B1R gene of the rat; % activation and % inhibition at 10 μM
- Format: cell-based
- Condition set: CHO-K1, test substance 10 μM; CHO K1 rB1R cells; Ca2+ inflow after 100 nM Des-Arg9-bradykinin; read-out: B1R antagonism, rat [10 μM] % inhibition
- Text: The agonistic or antagonistic action of substances can be quantified on the bradykinin receptor 1 (B1R) of the species human and rat with ectopically expressing cell lines (CHO K1 cells) and with the aid of a Ca^2+-sensitive dye (Fluo-4) using a fluorescent imaging plate reader (FLIPR). […] The agonistic or antagonistic action of substances can be determined on the bradykinin 1 receptor (B1R) of the human and rat species with the following assay. […]
Endpoint: inhibition at 10 µM (%)
One number for each entry, in %.

Molecule: COc1cc(C)c(S(=O)(=O)N2CCCC2COCC(=O)N2CCC(O)(c3ccccc3)CC2)c(C)c1 (stereo not drawn) [Example 215]
inhibition at 10 µM [%]: 102
--
Molecule: CN(CCOCC(=O)N1CCC(O)(c2ccc(Cl)c(C(F)(F)F)c2)CC1)S(=O)(=O)c1cc(Cl)sc1Cl [Example 263]
inhibition at 10 µM [%]: 70.5
--
Molecule: Cc1cc(S(=O)(=O)N(C)CCOCC(=O)N2CCC(O)(c3ccc(Br)cc3)CC2)c(C)s1 [Example 257]
inhibition at 10 µM [%]: 101
--
Molecule: COc1cc(C)c(S(=O)(=O)N(CCOCC(=O)N2CCC(O)(c3cccnc3)CC2)Cc2ccccc2)c(C)c1 [Example 130]
inhibition at 10 µM [%]: 98.6
--
Molecule: COc1cc(C)c(S(=O)(=O)N(CCOCC(=O)N2CCC(O)(c3cccnc3)CC2)C2CC2)c(C)c1 [Example 139]
inhibition at 10 µM [%]: 101

Entry Cc1cc(S(=O)(=O)N(C)CCOCC(=O)N2CCC(O)(c3ccc(Cl)cc3)CC2)c(C)cc1Cl [Example 150] , inhibition at 10 µM reported as 93.7
